target: nucleolin RBD1,2 (NCL RBD1,2) (UniProt P19338 307-466); assay: fluorescence titration; TMPyP4 (pre-formed complex; TMPyP4 excess disrupts the G4); Oligonucleotide annealed in 10 mM lithium cacodylate pH 7.2, 100 mM KCl (95 °C 10 min, then ice 10 min); titration temperature not given in the material; conditions: protein: recombinant; label: 5'-Cy5; intramolecular G4, parallel in 100 mM KCl
Sequence (P19338 307-466): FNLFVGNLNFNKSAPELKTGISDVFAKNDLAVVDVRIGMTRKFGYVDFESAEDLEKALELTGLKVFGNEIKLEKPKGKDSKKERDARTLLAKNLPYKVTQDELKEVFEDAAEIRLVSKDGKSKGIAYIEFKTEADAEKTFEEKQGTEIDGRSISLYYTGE
Measured quantity: Kd (nM)
Value expressed in nM; do not type the unit.

Give the measured Kd of TGGTGGTGGTTGTTGTTGGTGGTGGTGGT (structured_DNA) [5'-Cy5-AT11-L2 G4] .
1.2
